I'd be grateful if you could share measured upper left quadrant, percent of cells AF647+ / hTcRβ-PerCP- for these entries.
target-under-test: T1, monkey CD3e (Macaca fascicularis) on PBMC (Macaca fascicularis, UniProt Q95LI5 22-198)
T1 construct: Target on PBMC from Macaca fascicularis; also called mfCD3e; monkey PBMC
T1 sequence (Q95LI5 22-198 limits assumed): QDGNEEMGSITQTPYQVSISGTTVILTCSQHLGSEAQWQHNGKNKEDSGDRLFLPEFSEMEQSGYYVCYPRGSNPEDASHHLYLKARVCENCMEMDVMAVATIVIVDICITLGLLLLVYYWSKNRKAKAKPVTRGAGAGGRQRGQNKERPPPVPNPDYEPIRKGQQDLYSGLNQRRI
assay-remarks: flow cytometry, Macaca fascicularis PBMC, antibody concentration not given, anti-human IgG Fc-Alexa Fluor647 (1:500), anti-hTcRβ-PerCP (1:30)
Provide only the numeric value, understood in %.

Any idea what its upper left quadrant, percent of cells AF647+ / hTcRβ-PerCP- is? The binder is 1B1-H2K3-IgG1-LALA (antibody, V domains shown, Humanized; human IgG1 with LALA mutations; also called H2K3 (humanized 1B1)) VH: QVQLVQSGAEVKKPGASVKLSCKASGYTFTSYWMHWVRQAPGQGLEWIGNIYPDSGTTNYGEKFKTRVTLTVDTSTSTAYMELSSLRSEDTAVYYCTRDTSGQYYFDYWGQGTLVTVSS VL: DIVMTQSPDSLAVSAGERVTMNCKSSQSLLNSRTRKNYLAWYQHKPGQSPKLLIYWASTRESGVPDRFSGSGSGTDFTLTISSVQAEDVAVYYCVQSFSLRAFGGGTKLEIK
88.3

Name the recorded upper left quadrant, percent of cells AF647+ / hTcRβ-PerCP- for 10A4-H2K1-IgG1-LALA (antibody, V domains shown, Humanized; human IgG1 with LALA mutations; also called H2K1 (humanized 10A4)) VH: QVQLVQSGAEVKKPGASVKISCKASGYTFTSYYIHWVRQAPGQRLEFIGWIYPGNVNAKYNEKFKGRATITTDKSASTAYMELSSLRSEDTAVYYCAIKGGNYDWGQGTLVTVSS VL: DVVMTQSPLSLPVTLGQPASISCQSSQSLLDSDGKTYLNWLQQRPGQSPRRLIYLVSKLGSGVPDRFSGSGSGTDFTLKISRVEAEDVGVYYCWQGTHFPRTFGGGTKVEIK .
49.4

Requested read-out: upper left quadrant, percent of cells AF647+ / hTcRβ-PerCP-. Entry: 1B1-H4K2-IgG1-LALA (antibody, V domains shown, Humanized; human IgG1 with LALA mutations; also called H4K2 (humanized 1B1)) VH: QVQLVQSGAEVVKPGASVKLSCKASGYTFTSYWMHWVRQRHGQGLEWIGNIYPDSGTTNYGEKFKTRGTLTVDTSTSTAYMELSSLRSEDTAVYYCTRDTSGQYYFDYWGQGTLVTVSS VL: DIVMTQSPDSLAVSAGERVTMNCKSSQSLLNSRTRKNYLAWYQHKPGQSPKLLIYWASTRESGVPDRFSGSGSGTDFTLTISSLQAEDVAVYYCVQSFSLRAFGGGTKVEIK
73.2

Quick check: upper left quadrant, percent of cells AF647+ / hTcRβ-PerCP- of 10A4-H2K2-IgG1-LALA (antibody, V domains shown, Humanized; human IgG1 with LALA mutations; also called H2K2 (humanized 10A4)) VH: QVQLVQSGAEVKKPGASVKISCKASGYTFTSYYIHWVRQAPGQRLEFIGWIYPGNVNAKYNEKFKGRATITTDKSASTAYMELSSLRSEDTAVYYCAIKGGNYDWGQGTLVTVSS VL: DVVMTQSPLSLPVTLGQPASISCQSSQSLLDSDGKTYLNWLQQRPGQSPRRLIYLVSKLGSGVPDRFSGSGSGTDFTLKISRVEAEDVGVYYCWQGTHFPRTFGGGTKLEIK ?
44.2

Which upper left quadrant, percent of cells AF647+ / hTcRβ-PerCP- is listed for 10A4-H4K2-IgG1-LALA (antibody, V domains shown, Humanized; human IgG1 with LALA mutations; also called H4K2 (humanized 10A4)) VH: QVQLQQSGAEVKKPGASVRISCKASGYTFTSYYIHWVRQRPGQGLEFIGWIYPGNVNAKYNEKFKGRATLTTDKSASTAYMELSSLRSEDTAVYFCAIKGGNYDWGQGTLVTVSS VL: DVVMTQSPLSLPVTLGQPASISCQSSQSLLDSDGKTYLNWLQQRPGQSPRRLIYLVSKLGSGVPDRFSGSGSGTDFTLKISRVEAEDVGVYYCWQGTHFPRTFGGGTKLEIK ?
44.9
